Method: Acute toxicity in mice
Experimental parameters: mouse, in vivo, ip, intraperitoneal, determined 48 hours later, read-out: DL50 (dose which kills 50% of mice)
# reported LD50 at 48 h; entries follow
Outcome measure: LD50 at 48 h

>>> test_result("CNC1C=Cc2cc(O)ccc2CC1.Cl (stereo not shown)")
"50 mg/kg"
>>> test_result("CNC1C=Cc2cc([N+](=O)[O-])ccc2CC1.Cl (stereo not shown)")
"75 mg/kg"
>>> test_result("CNC1C=Cc2cc(OC)ccc2CC1.Cl (stereo not shown)")
"50 mg/kg"
>>> test_result("CNC1C=Cc2cc(N)ccc2CC1.O=C(O)/C=C/C(=O)O (stereo not shown)")
"75 mg/kg"

====

Test system: serotonine (5HT) uptake
Method: Inhibition of serotonine uptake in vitro (14C-5HT, impure brain synaptosomes)
Type: biochemical, female rat
Experimental parameters: rat brain synaptosomes, 37° C., 5 minutes, 14 C-5HT 10^-7 M; read-out: Test in vitro I.C. 50 (inhibition of 14C-5HT uptake)
Description: The inhibition of serotonine (5HT) uptake was measured in impure synaptosomes prepared from the entire brain of a female rat 19 to 21 days old using the technique of Kannengiesser et al. [Biochemical Pharmacology,Vol. 22, (1973) p. 73]. […]
pIC50: −log10 of the molar value.
Outcome measure: pIC50

>>> test_result("CNC1C=Cc2cc(OC)ccc2CC1.Cl (stereo not shown) [Example 3, hydrochloride]")
6.57
>>> test_result("CNC1C=Cc2cc(N)ccc2CC1.O=C(O)/C=C/C(=O)O (stereo not shown) [Example 2, fumarate]")
5.40
>>> test_result("CNC1C=Cc2cc(O)ccc2CC1.Cl (stereo not shown) [Example 4, hydrochloride]")
6.42
>>> test_result("CNC1C=Cc2cc([N+](=O)[O-])ccc2CC1.Cl (stereo not shown) [Example 1, hydrochloride]")
6.49
